system_tested: Amyloid-beta precursor protein (Homo sapiens)
experiment_summary: Neuroprotective activity against amyloid beta (25 to 35)-induced cell death in human SH-SY5Y cells assessed as cell viability at 2 uM after 24 hrs by MTT assay relative to control
Format: functional, cell-based
Answer each item with its documented Activity.

Documented Activity of `COc1ccc(C(=O)O[C@@H](c2ccc3c(c2)OCO3)[C@H](C)C(C)=O)cc1OC` : 68.9%

Documented Activity of `COc1cc([C@H]2c3cc4c(cc3C[C@@H](C)[C@@H]2C)OCO4)ccc1O` : 60.5%

Documented Activity of `COc1cc([C@@H]2c3cc(OC)c(O)cc3C=C(C)[C@H]2C)ccc1O` : 62.1%

Documented Activity of `OC[C@H](Cc1ccc2c(c1)OCO2)[C@H](CO[C@@H]1O[C@H](CO)[C@@H](O)[C@H](O)[C@H]1O)Cc1ccc2c(c1)OCO2` : 63.1%

Documented Activity of COc1cc(C[C@@H](C)[C@@H](C)Cc2ccc(O)c(OC)c2)ccc1O [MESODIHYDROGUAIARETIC ACID] : 69.2%

Documented Activity of `O=C1O[C@H]([C@@H](O)CO)C(O)=C1O` : 58.5%

Documented Activity of `COc1ccc([C@H]2c3cc4c(cc3C[C@@H](C)[C@@H]2C)OCO4)cc1OC` : 59.8%

Documented Activity of `OC[C@H](Cc1ccc2c(c1)OCO2)[C@H](CO[C@@H]1O[C@H](CO[C@@H]2O[C@@H](CO)[C@H](O)[C@H]2O)[C@@H](O)[C@H](O)[C@H]1O)Cc1ccc2c(c1)OCO2` : 62%

Documented Activity of `COc1ccc([C@H]2O[C@H](c3ccc4c(c3)OCO4)[C@@H](C)[C@H]2C)cc1OC` : 58.6%

Documented Activity of `COc1cc(C[C@H](C)[C@H](C)Cc2ccc3c(c2)OCO3)ccc1O` : 61.8%

Documented Activity of `COc1ccc(C[C@@H](C)[C@@H](C)Cc2ccc3c(c2)OCO3)cc1OC` : 61.1%

* * *

system_tested: Amyloid-beta precursor protein (Homo sapiens) (UniProt P05067)
Sequence (P05067 whole entry): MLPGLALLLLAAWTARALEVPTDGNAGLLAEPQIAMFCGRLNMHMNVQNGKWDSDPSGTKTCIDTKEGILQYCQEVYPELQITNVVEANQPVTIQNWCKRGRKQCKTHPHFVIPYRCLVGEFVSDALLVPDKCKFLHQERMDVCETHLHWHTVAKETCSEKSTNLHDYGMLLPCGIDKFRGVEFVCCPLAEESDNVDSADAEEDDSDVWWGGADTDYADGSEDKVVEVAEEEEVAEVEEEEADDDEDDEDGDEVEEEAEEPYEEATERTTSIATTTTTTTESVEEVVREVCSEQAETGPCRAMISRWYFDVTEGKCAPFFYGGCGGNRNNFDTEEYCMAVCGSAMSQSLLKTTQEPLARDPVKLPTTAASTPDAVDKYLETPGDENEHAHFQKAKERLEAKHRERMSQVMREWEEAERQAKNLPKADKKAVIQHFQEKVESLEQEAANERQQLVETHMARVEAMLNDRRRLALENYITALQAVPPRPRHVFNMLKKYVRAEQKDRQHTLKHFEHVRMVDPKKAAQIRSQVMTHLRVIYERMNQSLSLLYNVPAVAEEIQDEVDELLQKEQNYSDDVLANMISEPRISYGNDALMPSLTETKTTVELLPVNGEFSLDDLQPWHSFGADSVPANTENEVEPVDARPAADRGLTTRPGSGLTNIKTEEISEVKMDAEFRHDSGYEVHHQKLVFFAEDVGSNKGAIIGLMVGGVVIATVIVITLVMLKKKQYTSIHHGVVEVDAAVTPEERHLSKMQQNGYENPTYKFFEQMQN
experiment_summary: Neuroprotective activity against amyloid beta (25 to 35)-induced cell death in human SH-SY5Y cells assessed as cell viability at 0.4 uM after 24 hrs by MTT assay relative to control
Type: functional, cell-based
readout: Activity (%)
Value expressed in %; do not type the unit.

I looked up `OC[C@H](Cc1ccc2c(c1)OCO2)[C@H](CO[C@@H]1O[C@H](CO[C@@H]2O[C@@H](CO)[C@H](O)[C@H]2O)[C@@H](O)[C@H](O)[C@H]1O)Cc1ccc2c(c1)OCO2` and its Activity for Amyloid-beta precursor protein (Homo sapiens) (UniProt P05067) was 59.2

I looked up `COc1cc([C@H]2c3cc4c(cc3C[C@@H](C)[C@@H]2C)OCO4)ccc1O` and its Activity for Amyloid-beta precursor protein (Homo sapiens) (UniProt P05067) was 59.9

I looked up `OC[C@H](Cc1ccc2c(c1)OCO2)[C@H](CO[C@@H]1O[C@H](CO)[C@@H](O)[C@H](O)[C@H]1O)Cc1ccc2c(c1)OCO2` and its Activity for Amyloid-beta precursor protein (Homo sapiens) (UniProt P05067) was 64

I looked up COc1cc(C[C@@H](C)[C@@H](C)Cc2ccc(O)c(OC)c2)ccc1O [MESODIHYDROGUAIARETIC ACID] and its Activity for Amyloid-beta precursor protein (Homo sapiens) (UniProt P05067) was 63.8

I looked up `COc1ccc(C(=O)O[C@@H](c2ccc3c(c2)OCO3)[C@H](C)C(C)=O)cc1OC` and its Activity for Amyloid-beta precursor protein (Homo sapiens) (UniProt P05067) was 65.4

I looked up `O=C1O[C@H]([C@@H](O)CO)C(O)=C1O` and its Activity for Amyloid-beta precursor protein (Homo sapiens) (UniProt P05067) was 55.6
